target.entity: human sphingosine-1-phosphate receptor 1 (S1P1) (Homo sapiens (Human), UniProt P21453)
Sequence (P21453 whole entry, looked up): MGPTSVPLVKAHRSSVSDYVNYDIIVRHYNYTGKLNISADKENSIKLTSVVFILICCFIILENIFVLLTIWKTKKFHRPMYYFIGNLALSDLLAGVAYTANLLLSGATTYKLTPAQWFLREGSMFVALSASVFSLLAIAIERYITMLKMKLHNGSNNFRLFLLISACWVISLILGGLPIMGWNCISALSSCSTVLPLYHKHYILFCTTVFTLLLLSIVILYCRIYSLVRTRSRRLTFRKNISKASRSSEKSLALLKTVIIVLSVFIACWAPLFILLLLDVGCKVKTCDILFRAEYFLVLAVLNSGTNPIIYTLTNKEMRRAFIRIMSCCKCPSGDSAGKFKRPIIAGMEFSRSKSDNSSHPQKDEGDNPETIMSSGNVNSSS
Sequence (P32121 whole entry partner, looked up): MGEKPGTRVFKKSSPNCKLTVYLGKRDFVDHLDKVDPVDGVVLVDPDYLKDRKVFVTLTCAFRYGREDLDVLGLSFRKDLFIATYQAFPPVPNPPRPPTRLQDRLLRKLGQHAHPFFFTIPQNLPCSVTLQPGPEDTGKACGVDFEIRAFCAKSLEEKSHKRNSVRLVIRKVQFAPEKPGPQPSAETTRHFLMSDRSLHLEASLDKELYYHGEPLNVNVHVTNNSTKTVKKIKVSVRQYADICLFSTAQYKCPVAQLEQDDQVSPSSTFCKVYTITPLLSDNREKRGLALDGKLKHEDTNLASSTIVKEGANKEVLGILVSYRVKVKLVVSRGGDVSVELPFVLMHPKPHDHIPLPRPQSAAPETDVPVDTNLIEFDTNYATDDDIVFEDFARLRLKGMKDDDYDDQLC
measurement.description: β-Arrestin2 recruitment assay (PathHunter), S1P1 CHO-K1 cells
Format: cell-based
experimental.context: β-arrestin2 recruitment, S1P1 CHO-K1 cells
Description: Stable clonal Chinese hamster ovary K1 (CHO-K1) cells co-expressing EA-β-arrestin2 and the human sphingosine-1-phosphate receptor 1 (NM_001400, S1P1) with a C-terminal Prolink™ tag were purchased from DiscoverX corporation (Cat #: 93-0207C2). […] Agonist-promoted β-arrestin2 recruitment to the sphingosine-1-phosphate 1 receptor was determined using the β-arrestin PathHunter®) Detection kit (DiscoverX Corporation, Cat #: 93-0001). […]
# hS1P1 B-arrestin2 pEC50 per record follows

Answered cases to consult:
> print(dat)
                                smiles.repr        measured.quantity  result
1  O=C1CC2(CCOCC2)Oc2ccc(-c3nc(-c4ccncc4)no3)cc21  hS1P1 B-arrestin2 pEC50      <5
2  COc1cccc(OC)c1-c1noc(-c2ccc3c(c2)nnn3C(C)C)n1  hS1P1 B-arrestin2 pEC50      <5
3  COc1ccccc1-c1noc(-c2ccc3c(c2)nnn3C(C)C)n1  hS1P1 B-arrestin2 pEC50      >5
4  Cc1cncc(-c2nc(-c3ccc4c(c3)nnn4C(C)C)no2)n1  hS1P1 B-arrestin2 pEC50      >5
5  Cc1oc(-c2ccc3c(c2)nnn3C(C)C)nc1-c1ccccc1  hS1P1 B-arrestin2 pEC50      <5
6  CC(C)Oc1ccc(-c2nc(-c3ccc4c(c3)nnn4C3CCCC3)no2)cc1C(F)(F)F  hS1P1 B-arrestin2 pEC50      >5

We next turn to a different molecule, shown below.
Ask | Indicate the recorded hS1P1 B-arrestin2 pEC50 value for this molecule: N#Cc1cc(-c2nc(-c3ccc4c(c3)CCC(=O)N4)no2)ccc1NCC(F)F
Reply | >5
